- assayed system: Aurora B (Homo sapiens, UniProt Q96GD4)
- Construct: purchased Invitrogen PV3970
- Sequence (Q96GD4 whole entry): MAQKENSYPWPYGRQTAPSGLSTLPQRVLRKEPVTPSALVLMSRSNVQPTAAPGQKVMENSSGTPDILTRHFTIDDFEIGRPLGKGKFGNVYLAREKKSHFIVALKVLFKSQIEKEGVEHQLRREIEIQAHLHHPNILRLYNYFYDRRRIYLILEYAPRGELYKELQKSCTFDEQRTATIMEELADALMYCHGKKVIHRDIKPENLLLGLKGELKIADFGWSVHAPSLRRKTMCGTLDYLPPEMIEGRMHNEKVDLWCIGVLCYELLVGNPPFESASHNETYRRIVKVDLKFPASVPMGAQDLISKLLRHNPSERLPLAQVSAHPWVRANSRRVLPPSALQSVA
- test description: Aurora B Inhibition Assay (Z-Lyte)
- Type: biochemical
- experimental conditions: 10 μM compound; read-out: Aurora B relative inhibition percentage at a dose of 10 μM
quantity name: inhibition at 10 µM

Tell me the measured inhibition at 10 µM of `CC(=O)Nc1ccc2c(c1)NC(=O)/C2=C/c1ccc2cn[nH]c2c1` , please.
< 50%

Suppose we examine the compound O=C1Nc2ncc(Br)cc2C1=Cc1ccc2cn[nH]c2c1 (racemic) ; what inhibition at 10 µM value has been reported?
> 50%

Need inhibition at 10 µM, item `O=C1Nc2ccc(C(=O)Nc3ccccc3)cc2/C1=C\c1ccc2cn[nH]c2c1`
> 50%

Give its inhibition at 10 µM value. Item: `O=C1Nc2ccc(Br)cc2/C1=C\c1ccc2[nH]ncc2c1`
> 50%

Recorded inhibition at 10 µM of `CC(C)NC(=O)Nc1ccc2c(c1)/C(=C\c1ccc3cn[nH]c3c1)C(=O)N2` , please.
< 50%

Fill blank: measured inhibition at 10 µM of the compound `O=C1Nc2ncccc2/C1=C\c1ccc2cn[nH]c2c1` is ____.
> 50%

====

For each of the compounds below, state its inhibition at 10 µM.
- assayed system: ERK2 (P42mapk) (Homo sapiens)
- Construct: CEREP, France (ran the assays)
- Sequence (P28482 whole entry): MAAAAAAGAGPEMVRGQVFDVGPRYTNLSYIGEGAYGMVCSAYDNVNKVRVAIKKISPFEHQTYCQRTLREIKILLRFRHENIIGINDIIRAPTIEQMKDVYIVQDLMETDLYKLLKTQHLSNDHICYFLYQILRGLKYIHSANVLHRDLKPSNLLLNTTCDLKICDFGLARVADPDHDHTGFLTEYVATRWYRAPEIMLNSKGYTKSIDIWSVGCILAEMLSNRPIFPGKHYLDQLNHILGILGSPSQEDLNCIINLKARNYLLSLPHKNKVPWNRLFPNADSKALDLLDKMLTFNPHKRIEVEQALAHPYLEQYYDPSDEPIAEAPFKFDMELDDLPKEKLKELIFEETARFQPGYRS
- test description: Kinase Selectivity Assay (CEREP, HTRF)
- Type: biochemical
- experimental conditions: read-out: % Inhibition at 10 μM Concentration, ERK (P42mapk)
Just the number plus its unit, please.

Param item = COc1ccc2c(c1)C(=Cc1ccc3c(-c4ccc(N5CCN(C)CC5)nc4)n[nH]c3c1)C(=O)N2 (mixture of isomers) ; retrieve measured inhibition at 10 µM.
-9%

Given the entry `O=C1Nc2ccccc2/C1=C\c1ccc2[nH]nnc2c1` , report its measured inhibition at 10 µM.
3%

// inhibition at 10 µM lookup, key: O=C1Nc2ccccc2C1=Cc1ccc2c(/C=C/c3ccccn3)n[nH]c2c1 (mixture of isomers)
14%

Recorded inhibition at 10 µM for `O=C1Nc2ccccc2/C1=C\c1ccc2c(/C=C/c3ccccc3Cl)n[nH]c2c1` , please?
2%

Look up inhibition at 10 µM for this compound: `O=C1Nc2ccccc2/C1=C\c1ccc2cn[nH]c2c1`
0%

====

Exercise: for every item that follows, state its recorded pIC50.
- assayed system: human PLK4 (Homo sapiens, UniProt O00444)
- Construct: amino terminal GST fusion of residues 1-391 of human PLK4; made in house; host or cells: E. coli
- Sequence (O00444 1-391): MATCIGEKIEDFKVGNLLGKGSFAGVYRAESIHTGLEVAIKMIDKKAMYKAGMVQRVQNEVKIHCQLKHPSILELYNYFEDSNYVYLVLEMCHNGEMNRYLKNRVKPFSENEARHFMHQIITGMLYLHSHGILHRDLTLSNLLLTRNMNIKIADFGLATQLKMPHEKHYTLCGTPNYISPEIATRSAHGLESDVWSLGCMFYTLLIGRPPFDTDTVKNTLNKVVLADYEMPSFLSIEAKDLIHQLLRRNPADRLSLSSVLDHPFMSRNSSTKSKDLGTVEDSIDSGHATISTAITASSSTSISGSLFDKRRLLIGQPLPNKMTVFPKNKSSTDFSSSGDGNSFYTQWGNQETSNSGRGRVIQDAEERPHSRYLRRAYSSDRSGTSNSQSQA
- test description: PLK4 Inhibition Assay (indirect ELISA)
- Assay type: biochemical
- experimental conditions: 15 μM ATP, 4 nM GST-PLK4; read-out: PLK4 IC50 Ranges
pIC50: −log10 of the molar value.

# input compound: CN(C)S(=O)(=O)Nc1ccc2c(c1)/C(=C\c1ccc3nn[nH]c3c1)C(=O)N2 [Example A21] ; wanted: its pIC50
> 5.30

Sample COc1ccc2c(c1)/C(=C\c1ccc3c(/C=C/c4ccncc4)n[nH]c3c1)C(=O)N2 [Example A86] — what was its pIC50?
> 5.30

Form field: reported pIC50 of Nc1ccc2c(c1)/C(=C\c1ccc3c(/C=C/c4ccncc4)n[nH]c3c1)C(=O)N2 [Example A122, bis(2,2,2-trifluoroacetate)]
> 5.30

What value of pIC50 has been recorded for this entry: O=C1Nc2cc(Cl)ccc2/C1=C\c1ccc2[nH]nnc2c1 [Example A4]
4.30 to 5.30
